Tested on: HepG2
Assay: Cytotoxicity against human HepG2 cells assessed as cell growth inhibition preincubated for 24 hrs followed by compound washout measured after 72 hrs by MTT assay
Type: functional, cell-based
quantity-measured: pIC50
Give bare numbers, as −log10 of the molar value.

Quick one: pIC50 of Cc1cc2c(cc1C)-c1oc(CNc3ccc(CN4CCOCC4)cc3)c(C)c1C(=O)C2=O ?
5.37

###

Experiment: Solubility of the compound in diluted HCl buffer at pH 3
Type: physicochemical
Exercise: state measured solubility for each of the molecules provided.

- Cc1cc2c(cc1C)-c1oc(CNc3ccc(CN4CCOCC4)cc3)c(C)c1C(=O)C2=O: > 1000 µg/mL

Report solubility for every entry below.
1. Cc1cc2c(cc1C)-c1oc(CNc3cccc(F)c3)c(C)c1C(=O)C2=O
2. Cc1cc2c(cc1C)-c1oc(CNc3ccc(F)cc3C)c(C)c1C(=O)C2=O
3. Cc1cc2c(cc1C)-c1oc(C(=O)N3CCN(Cc4ccccc4)CC3)c(C)c1C(=O)C2=O
4. Cc1cc2c(cc1C)-c1oc(CN3CCN(c4ccc(F)cc4)CC3)c(C)c1C(=O)C2=O
5. CC1(C)CCC2=C(O1)c1ccccc1C(=O)C2=O
6. Cc1cc2c(cc1C)-c1oc(CNc3ccc(F)cc3)c(C)c1C(=O)C2=O
7. Cc1cc2c(cc1C)-c1occ(C)c1C(=O)C2=O

1. 100 to 500 µg/mL
2. < 100 µg/mL
3. 100 to 500 µg/mL
4. 500 to 1000 µg/mL
5. < 100 µg/mL
6. 100 to 500 µg/mL
7. < 100 µg/mL

###

Assay: Intrinsic solubility of the compound
Type: physicochemical
Details: read-out: Intrinsic_solubility
Exercise: state measured solubility for each of the compounds provided.
One number for each entry, in µg/mL.

- Cc1cc2c(cc1C)-c1oc(CNc3cccc(F)c3)c(C)c1C(=O)C2=O: 51.2
- Cc1cc2c(cc1C)-c1oc(CNc3ccc(F)cc3C)c(C)c1C(=O)C2=O: 33.1
- Cc1cc2c(cc1C)-c1oc(C(=O)N3CCN(Cc4ccccc4)CC3)c(C)c1C(=O)C2=O: 41.1
- Cc1cc2c(cc1C)-c1oc(CNc3ccc(CN4CCOCC4)cc3)c(C)c1C(=O)C2=O: 360
- Cc1cc2c(cc1C)-c1occ(C)c1C(=O)C2=O: 28.6
- CC1(C)CCC2=C(O1)c1ccccc1C(=O)C2=O: 38
- Cc1cc2c(cc1C)-c1oc(CNc3ccc(F)cc3)c(C)c1C(=O)C2=O: 48.5

Then there is this compound:
Quick one: solubility of Cc1cc2c(cc1C)-c1oc(CN3CCN(c4ccc(F)cc4)CC3)c(C)c1C(=O)C2=O ?
151

###

Tested on: MCF7
Test: Cytotoxicity against human MCF7 cells assessed as cell growth inhibition preincubated for 24 hrs followed by compound washout measured after 72 hrs by MTT assay
Assay type: functional, cell-based
quantity-measured: pIC50
Numbers only, as −log10 of the molar value.

Quick one: pIC50 of Cc1cc2c(cc1C)-c1oc(CNc3ccc(CN4CCOCC4)cc3)c(C)c1C(=O)C2=O ?
5.33

###

Target: NAD(P)H dehydrogenase [quinone] 1 (Homo sapiens)
Experiment: Substrate activity at recombinant human NQO1 expressed in Escherichia coli assessed as reduction rate by measuring umol of NADPH utilized per umol of enzyme at 10 uM preincubated for 3 mins followed by NADPH addition measured at 2 secs interval for 5 mins by UV-Vis spectroscopy
Lab note: anything with Activity at or over 1000 µmol/min counts as true (1); the rest go in false (0).

For orientation, consider the following solved cases.
• Cc1cc2c(cc1C)-c1oc(CN3CCN(Cc4ccccc4)CC3)c(C)c1C(=O)C2=O = true (1)
• Cc1cc2c(cc1C)-c1oc(CNc3ccc(Cl)cc3Cl)c(C)c1C(=O)C2=O = true (1)
• Cc1cc2c(cc1C)-c1oc(CN3CCN(c4ccccc4)CC3)c(C)c1C(=O)C2=O = true (1)
• Cc1cc2c(cc1C)-c1oc(CNc3ccc(F)c(Cl)c3)c(C)c1C(=O)C2=O = false (0)
• Cc1cc2c(cc1C)-c1oc(CNc3ccc(CN4CCOCC4)cc3)c(C)c1C(=O)C2=O = true (1)

Attention now shifts to the item below.
Test whether the compound COc1ccc(NCc2oc3c(c2C)C(=O)C(=O)c2cc(C)c(C)cc2-3)cc1 records Activity of 1000 µmol/min or higher.
true (1)
